recordedConditions: in water, 323.15 K
propertyName: solubility (mole fraction)
Please give the numeric answer without any surrounding text.

Indicate its recorded solubility (mole fraction); the molecule in question is C=CC(=O)N1CCC[C@@H](n2nc(-c3ccc(Oc4ccccc4)cc3)c3c(N)ncnc32)C1
7.77e-07

---

recordedConditions: in water, 308.15 K
propertyName: solubility (mole fraction)

Indicate its recorded solubility (mole fraction); the compound in question is C=CC(=O)N1CCC[C@@H](n2nc(-c3ccc(Oc4ccccc4)cc3)c3c(N)ncnc32)C1
3.12e-07

---

recordedConditions: in ethanol, 313.15 K
propertyName: solubility (mole fraction)
Please give the numeric answer without any surrounding text.

Indicate its recorded solubility (mole fraction); the molecule in question is C=CC(=O)N1CCC[C@@H](n2nc(-c3ccc(Oc4ccccc4)cc3)c3c(N)ncnc32)C1
0.00447
